Tested on: LNCaP tumor-bearing male CB-17 SCID mice
Test summary: Biodistribution 1 h p.i. with competition (co-injection of 2-PMPA)
Format: in vivo
Conditions: co-injected with 2-PMPA (8 mg/kg), n = 3
Please provide measured Biodistribution Kidneys for the entries that follow.
Give bare numbers, in % ID/g.

Solved cases (3 shown):
Molecule	Assay endpoint	Unit text	Numeric value
CC(C)(C)[Si]([18F])(c1ccc(C(=O)NC[C@H](NC(=O)CC[C@H](C(=O)O)N2CCN(CC(=O)[O-])CCN(CC(=O)[O-])CCN(CC(=O)[O-])CC2)C(=O)N[C@H](CCCCNC(=O)CCC(=O)NCCC[C@@H](NC(=O)CC[C@H](NC(=O)N[C@@H](CCC(=O)O)C(=O)O)C(=O)O)C(=O)O)C(=O)O)cc1)C(C)(C)C.[Ga+3] [[^18F, ^natGa]rhPSMA-7.2]	Biodistribution Kidneys	% ID/g	10.9
CC(C)(C)[Si]([18F])(c1ccc(C(=O)NC[C@@H](NC(=O)CC[C@H](C(=O)O)N2CCN(CC(=O)[O-])CCN(CC(=O)[O-])CCN(CC(=O)[O-])CC2)C(=O)N[C@H](CCCCNC(=O)CCC(=O)NCCC[C@@H](NC(=O)CC[C@H](NC(=O)N[C@@H](CCC(=O)O)C(=O)O)C(=O)O)C(=O)O)C(=O)O)cc1)C(C)(C)C.[Ga+3] [[^18F, ^natGa]rhPSMA-7.1]	Biodistribution Kidneys	% ID/g	10.9
CC(C)(C)[Si]([18F])(c1ccc(C(=O)NC[C@@H](NC(=O)CC[C@@H](C(=O)O)N2CCN(CC(=O)[O-])CCN(CC(=O)[O-])CCN(CC(=O)[O-])CC2)C(=O)N[C@H](CCCCNC(=O)CCC(=O)NCCC[C@@H](NC(=O)CC[C@H](NC(=O)N[C@@H](CCC(=O)O)C(=O)O)C(=O)O)C(=O)O)C(=O)O)cc1)C(C)(C)C.[Ga+3] [[^18F, ^natGa]rhPSMA-7.3]	Biodistribution Kidneys	% ID/g	15.5

Let's switch to this molecule now.
Find the recorded Biodistribution Kidneys belonging to CC(C)(C)[Si]([18F])(c1ccc(C(=O)NC[C@H](NC(=O)CC[C@@H](C(=O)O)N2CCN(CC(=O)[O-])CCN(CC(=O)[O-])CCN(CC(=O)[O-])CC2)C(=O)N[C@H](CCCCNC(=O)CCC(=O)NCCC[C@@H](NC(=O)CC[C@H](NC(=O)N[C@@H](CCC(=O)O)C(=O)O)C(=O)O)C(=O)O)C(=O)O)cc1)C(C)(C)C.[Ga+3] [[^18F, ^natGa]rhPSMA-7.4] and report it.
7.2
